assay_system: MLLT1 (Homo sapiens, UniProt Q03111)
Construct: endogenous in cells; host or cells: MV4-11 (ATCC CRL-9591)
assay_info: MLLT1 degradation assay (JESS automated chemiluminescent detection) in MV4-11 cells
Assay type: cell-based
setup_conditions: 1 µM, 24h, with respect to DMSO control
Quick reference: inhibition at 1 µM of the listed items.

Example entries begin here.
compound="Cc1nn(CCCCCCCC#Cc2ccc(F)c3c2CN(C2CCC(=O)NC2=O)C3=O)c2cc(C(=O)Nc3cc4[nH]c([C@H]5CCCN5C)cc4cn3)ccc12 (stereo partly drawn)" result="≥ 75%"
compound="Cc1nn(C2CCN(CC#Cc3cccc4c3CN(C3CCC(=O)NC3=O)C4=O)CC2)c2cc(C(=O)Nc3cc4[nH]c([C@H]5CCCN5C)cc4cn3)ccc12 (stereo partly drawn)" result="50 to 75%"
compound=Cc1nn(CCCCCCC2CCN(c3cccc(C(=O)N[C@H]4CCC(=O)NC4=O)n3)CC2)c2cc(C(=O)Nc3cc4[nH]c([C@H]5CCCN5C)cc4cn3)ccc12 result="≥ 75%"
compound=Cc1nn(CCCCCCCC#Cc2ccc(C(=O)N[C@H]3CCC(=O)NC3=O)nc2)c2cc(C(=O)Nc3cc4[nH]c([C@H]5CCCN5C)cc4cn3)ccc12 result="50 to 75%"
compound="CN1CCC[C@@H]1c1cc2cnc(NC(=O)c3ccc4c(c3)c(N3CCC(CN5CCN(c6cc7c(cc6F)C(=O)N(C6CCC(=O)NC6=O)C7=O)CC5)CC3)nn4C)cc2[nH]1 (stereo partly drawn)" result="≥ 75%"

# next compound below
GET /values?readout=inhibition at 1 µM&item= CN1CCC[C@@H]1c1cc2cnc(NC(=O)c3ccc4c(C5CC5)nn(CCCCCCCC#Cc5cccc6c5CN(C5CCC(=O)NC5=O)C6=O)c4c3)cc2[nH]1 (stereo partly drawn)
≥ 75%

* * *

assay_system: MLLT1 (Homo sapiens, UniProt Q03111)
Construct: endogenous in cells; host or cells: MV4-11 (ATCC CRL-9591)
Sequence (Q03111 1-559): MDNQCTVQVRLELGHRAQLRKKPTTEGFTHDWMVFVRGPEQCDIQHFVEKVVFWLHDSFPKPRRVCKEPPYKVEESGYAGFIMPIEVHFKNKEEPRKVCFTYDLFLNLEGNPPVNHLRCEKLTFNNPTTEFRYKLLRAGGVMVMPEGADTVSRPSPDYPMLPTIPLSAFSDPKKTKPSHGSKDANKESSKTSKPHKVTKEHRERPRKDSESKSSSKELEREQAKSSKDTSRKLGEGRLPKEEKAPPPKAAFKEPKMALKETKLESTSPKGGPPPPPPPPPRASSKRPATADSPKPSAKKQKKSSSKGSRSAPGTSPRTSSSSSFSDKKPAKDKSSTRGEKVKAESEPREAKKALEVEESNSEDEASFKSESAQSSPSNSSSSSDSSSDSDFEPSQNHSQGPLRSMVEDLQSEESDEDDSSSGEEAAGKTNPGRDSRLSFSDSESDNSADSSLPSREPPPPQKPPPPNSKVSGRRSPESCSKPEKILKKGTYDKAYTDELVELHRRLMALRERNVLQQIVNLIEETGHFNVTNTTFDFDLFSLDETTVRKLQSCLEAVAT
assay_info: MLLT1 degradation assay (JESS automated chemiluminescent detection) in MV4-11 cells
Assay type: cell-based
setup_conditions: 1 µM, 24h, with respect to DMSO control
reported_endpoint: inhibition at 1 µM

compound="CCN1CCC[C@@H]1c1cc2cnc(NC(=O)c3ccc4c(C)nn(CCCCCCCC#Cc5cccc6c5CN(C5CCC(=O)NC5=O)C6=O)c4c3)cc2[nH]1 (stereo partly drawn) [Example 48]" result="≥ 75%"
compound="Cc1nn(CCOCCOCCNc2cccc3c2C(=O)N(C2CCC(=O)NC2=O)C3=O)c2cc(C(=O)Nc3cc4[nH]c([C@H]5CCCN5C)cc4cn3)ccc12 (stereo partly drawn) [Example 25]" result="≥ 75%"
compound="Cc1c2ccc(C(=O)Nc3cc4[nH]c([C@H]5CCCN5C)cc4cn3)cc2nn1CCCCCCCCNc1cccc2c1C(=O)N(C1CCC(=O)NC1=O)C2=O (stereo partly drawn) [Example 5]" result="25 to 50%"
compound="Cc1nn(CCCCCCCC#Cc2cccc3c2CN(C2CCC(=O)NC2=O)C3=O)c2cc(C(=O)Nc3cc4[nH]c([C@H]5CCCN5C)cc4cn3)c(F)cc12 (stereo partly drawn) [Example 58]" result="≥ 75%"
compound="Cc1nn(CCCCNc2cccc3c2C(=O)N(C2CCC(=O)NC2=O)C3=O)c2cc(C(=O)Nc3cc4[nH]c([C@H]5CCCN5C)cc4cn3)ccc12 (stereo partly drawn) [Example 21]" result="≥ 75%"

Could you now look at the following compound, please?
Requested read-out inhibition at 1 µM, target or system MLLT1 (Homo sapiens, UniProt Q03111), entry Cc1nn(CCCCCCCC#Cc2ccnc(C(=O)N[C@H]3CCC(=O)NC3=O)c2)c2cc(C(=O)Nc3cc4[nH]c([C@H]5CCCN5C)cc4cn3)ccc12 [Example 43]
≥ 75%

Recorded values, source patent EP4667466A1.
